target: PIP5K1C (Homo sapiens)
Sequence (O60331 whole entry): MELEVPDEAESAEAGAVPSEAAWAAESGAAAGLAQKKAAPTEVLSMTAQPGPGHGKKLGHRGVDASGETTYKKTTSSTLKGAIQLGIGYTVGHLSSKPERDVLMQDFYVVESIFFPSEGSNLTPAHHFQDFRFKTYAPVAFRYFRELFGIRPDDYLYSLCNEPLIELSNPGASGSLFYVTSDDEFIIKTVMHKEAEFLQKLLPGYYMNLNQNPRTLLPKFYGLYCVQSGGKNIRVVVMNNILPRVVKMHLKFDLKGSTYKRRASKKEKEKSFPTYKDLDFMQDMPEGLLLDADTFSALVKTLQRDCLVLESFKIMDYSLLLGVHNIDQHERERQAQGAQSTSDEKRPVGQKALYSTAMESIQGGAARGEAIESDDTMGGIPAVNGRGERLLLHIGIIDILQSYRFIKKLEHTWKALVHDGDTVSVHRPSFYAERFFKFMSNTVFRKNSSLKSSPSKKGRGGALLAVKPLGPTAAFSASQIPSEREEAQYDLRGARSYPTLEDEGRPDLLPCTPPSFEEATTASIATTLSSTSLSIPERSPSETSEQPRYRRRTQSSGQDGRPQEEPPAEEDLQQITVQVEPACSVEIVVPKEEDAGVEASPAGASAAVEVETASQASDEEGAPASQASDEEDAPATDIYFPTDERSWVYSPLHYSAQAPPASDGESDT
Value type: Ki (nM)
Answers are plain numbers, in nM.

So what's the measured Ki for this one? NC(=O)c1nc(Nc2ccccc2)sc1NC(=O)C1CCCCC1 [Compound 1]
23
